Target: Solute carrier family 15 member 1 (Homo sapiens, UniProt P46059)
Sequence (P46059 whole entry): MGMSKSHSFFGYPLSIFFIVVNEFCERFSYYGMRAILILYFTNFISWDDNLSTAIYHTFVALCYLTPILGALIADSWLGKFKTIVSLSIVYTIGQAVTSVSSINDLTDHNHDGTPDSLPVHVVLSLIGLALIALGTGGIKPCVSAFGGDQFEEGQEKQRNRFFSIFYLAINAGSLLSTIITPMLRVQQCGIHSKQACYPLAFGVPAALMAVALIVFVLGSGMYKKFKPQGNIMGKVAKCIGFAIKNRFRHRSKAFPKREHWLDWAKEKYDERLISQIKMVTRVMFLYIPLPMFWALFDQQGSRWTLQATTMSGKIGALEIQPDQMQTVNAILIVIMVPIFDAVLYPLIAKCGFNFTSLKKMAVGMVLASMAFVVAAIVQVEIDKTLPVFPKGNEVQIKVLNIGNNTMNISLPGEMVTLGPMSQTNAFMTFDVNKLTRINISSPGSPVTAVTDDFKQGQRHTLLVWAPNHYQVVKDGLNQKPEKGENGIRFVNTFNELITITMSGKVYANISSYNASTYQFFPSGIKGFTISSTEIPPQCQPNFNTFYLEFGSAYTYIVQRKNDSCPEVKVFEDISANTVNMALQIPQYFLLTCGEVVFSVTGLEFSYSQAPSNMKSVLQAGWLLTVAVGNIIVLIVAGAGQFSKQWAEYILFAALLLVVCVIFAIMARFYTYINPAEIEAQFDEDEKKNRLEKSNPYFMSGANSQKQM
Test: TP_TRANSPORTER: inhibition of Gly-Sar uptake in PEPT1-expressing HeLa cells
pKi: −log10 of the molar value. Where a SMILES comes first, the peptide text is derived from it.
metric-name: pKi

Some compounds with known pKi results, for comparison:
In [3]: df
Out[3]:
                                   compound  metric_name  measured_value
0  C[C@H](N)C(=O)N[C@@H](CCCCN)C(=O)O (H-Ala-Lys-OH)          pKi            3.93
1  C[C@H](N)C(=O)N[C@@H](CC(=O)O)C(=O)O (H-Ala-Asp-OH)          pKi            4.11
2  C[C@H](N)C(=O)N[C@@H](C)C(=O)O (H-Ala-Ala-OH)          pKi            4.11

(a) C[C@H](NC(=O)[C@@H](N)CCCCN)C(=O)O (H-Lys-Ala-OH)
(b) NCCCC[C@H](NC(=O)[C@@H](N)CC(=O)O)C(=O)O (H-Asp-Lys-OH)
Returns the identifier with the smallest measured pKi among a and b . // return label of chosen record
a
(a: 3.38, b: 3.97)
